Molecular target: Bromodomain-containing protein 2 (Homo sapiens, UniProt P25440)
Sequence (P25440 whole entry, the tested form may be a part): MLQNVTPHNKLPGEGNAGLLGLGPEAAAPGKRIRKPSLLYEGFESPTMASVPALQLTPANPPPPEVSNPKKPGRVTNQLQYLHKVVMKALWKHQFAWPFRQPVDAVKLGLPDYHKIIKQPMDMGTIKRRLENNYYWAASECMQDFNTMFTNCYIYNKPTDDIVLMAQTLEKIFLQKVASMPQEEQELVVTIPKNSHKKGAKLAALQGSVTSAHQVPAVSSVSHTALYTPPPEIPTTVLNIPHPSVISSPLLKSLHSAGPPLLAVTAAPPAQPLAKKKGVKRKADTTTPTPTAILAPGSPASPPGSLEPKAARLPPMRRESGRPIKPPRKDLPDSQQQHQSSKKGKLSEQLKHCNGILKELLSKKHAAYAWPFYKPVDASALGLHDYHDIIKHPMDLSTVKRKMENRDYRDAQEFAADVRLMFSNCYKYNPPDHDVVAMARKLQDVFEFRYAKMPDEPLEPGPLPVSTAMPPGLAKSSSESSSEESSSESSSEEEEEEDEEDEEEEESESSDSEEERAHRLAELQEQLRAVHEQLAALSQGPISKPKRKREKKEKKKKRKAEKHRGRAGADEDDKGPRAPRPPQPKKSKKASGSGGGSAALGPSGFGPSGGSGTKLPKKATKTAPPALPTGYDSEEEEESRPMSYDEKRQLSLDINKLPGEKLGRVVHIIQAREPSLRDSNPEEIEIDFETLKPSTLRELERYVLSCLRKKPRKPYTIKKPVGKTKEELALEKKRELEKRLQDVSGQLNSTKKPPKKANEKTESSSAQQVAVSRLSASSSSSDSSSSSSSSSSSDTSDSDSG
Assay: Displacement of biotinylated tetra-acetylated histone H4 from His6-tagged BRD2 (1 to 473 aa) (unknown origin) after 1 hr by TR-FRET assay
pIC50: −log10 of the molar value.
Property: pIC50

In [3]: df
Out[3]:
                                   compound                              assay_system  measured_result
0  CC(=O)N1c2ccc(-c3ccccc3)cc2[C@H](Nc2ccccc2)C[C@@H]1C (racemic)  Bromodomain-containing protein 2 (Homo sapiens, UniProt P25440)             6.10
1  COc1cccc(N[C@@H]2C[C@H](C)N(C(C)=O)c3ccc(-c4ccc(C(=O)O)cc4)cc32)c1 (racemic)  Bromodomain-containing protein 2 (Homo sapiens, UniProt P25440)             6.20
2  COc1ccccc1N[C@@H]1C[C@H](C)N(C(C)=O)c2ccc(-c3ccc(C(=O)O)cc3)cc21 (racemic)  Bromodomain-containing protein 2 (Homo sapiens, UniProt P25440)             6.20
3  CC(=O)N1c2ccc(-c3ccc(C(=O)O)cc3)cc2[C@H](Nc2ccccc2)C[C@@H]1C (racemic)  Bromodomain-containing protein 2 (Homo sapiens, UniProt P25440)             6.20

a. CC(=O)N1c2ccc(-c3ccc(C(=O)O)cc3)cc2[C@H](Nc2ccc(C)cc2)C[C@@H]1C (racemic)
b. CC(=O)N1c2ccc(-c3ccc(C#N)cc3)cc2[C@H](Nc2cccc(F)c2)C[C@@H]1C (racemic)
c. CC(=O)N1c2ccc(-c3ccc(C(=O)O)cc3)cc2[C@H](Nc2ccc(C)cc2)C[C@@H]1C
Req: Arrange by pIC50, high to low. Answer by writing out the labels in the requested order.
Resp: c, a, b

These data points were gathered from ChEMBL document CHEMBL3351476.
